Reported values of log10 IC50 for individual entries
Test system: Brugia malayi
experiment_summary: Antifilarial activity against microfilariae Brugia malayi by motility assay
Format: functional, organism-based
cond: Brugia malayi
Note the log scale: values are log10 of IC50 expressed in µg/mL.

Worked examples, 3 compounds total:
Cc1cc(/C=C/C(=O)c2ccccc2)cc2c1OCC1COC2O1 (racemic) | -0.05
Cc1cc(/C=C/C(=O)c2ccc(Cl)cc2)cc2c1OCC1COC2O1 (racemic) | 0.04
CCC(C)c1cc(/C=C/C(=O)c2ccccc2)cc2c1OCC1COC2O1 (racemic) | -0.05

For Brugia malayi, provide log10 IC50 of CCC(C)c1cc(/C=C/C(=O)c2ccc(Cl)cc2)cc2c1OCC1COC2O1 (racemic) please.
0.54

For Brugia malayi, provide log10 IC50 of CCN(CC)C(=O)N1CCN(C)CC1 [DIETHYLCARBAMAZINE] please.
2.55

For Brugia malayi, provide log10 IC50 of COc1ccc(C(=O)/C=C/c2cc(C)c3c(c2)C2OCC(CO3)O2)cc1 (racemic) please.
0.59

For Brugia malayi, provide log10 IC50 of Cc1ccc(C(=O)/C=C/c2cc(C)c3c(c2)C2OCC(CO3)O2)cc1 (racemic) please.
0.26

Values were extracted from ChEMBL document CHEMBL1949645.
